- System under test: full-length beta-Catenin (Uniprot ID P35222) (Homo sapiens (Human)) (UniProt P35222)
- Assay remarks: fluorescence polarization competition; full-length beta-catenin, competitor 5FAM-TCF4(10-53) probe
Starred links: 1 amine or outer side, 2 acyl side, 3 side chain; linkers in the order of their positions; H or OH if unused. Positions of bridges follow the written chain, without caps; N, C: chain ends. Non-standard residues stand in square brackets, D forms with d. Primed or numbered codes have the meaning given here. *: point of attachment. PyrS2″ = (S)-3-amino-1-((pent-4-en-1-yloxy)carbonyl)pyrrolidine-3-carboxylic acid (stapling residue), C=CCCCOC(=O)N1CC[C@@](N[*:1])(C(=O)[*:2])C1; B5(4) = 2,2-bis(4-pentenyl)glycine = 2-amino-2-(pent-4-en-1-yl)hept-6-enoic acid (stitching residue), C=CCCCC(CCCC=C)(N[*:1])C(=O)[*:2]; B5(5) = 2,2-bis(4-pentenyl)glycine, 2-amino-2-(pent-4-en-1-yl)hept-6-enoic acid (stitching residue), C=CCCCC(CCCC=C)(N[*:1])C(=O)[*:2]; B5(31) = 2-amino-2-(pent-4-en-1-yl)hept-6-enoic acid (bis-pentenylglycine, stitching residue), C=CCCCC(CCCC=C)(N[*:1])C(=O)[*:2]; PyrS2 = (S)-3-amino-1-((pent-4-en-1-yloxy)carbonyl)pyrrolidine-3-carboxylic acid, C=CCCCOC(=O)N1CC[C@@](N[*:1])(C(=O)[*:2])C1; CO2Hex = N-term cyclohexyl hydrogen carbonate, O=C(OC1CCCCC1)*; SbGlu = 3-aminopentanedioic acid, R/S prefix not explained; Nva(5-morpholino) = N[C@@H](CCCN1CCOCC1)C(=O)O; Phe(3-COOH) = N[C@@H](Cc1cccc(C(=O)O)c1)C(=O)O; Phe(2-CF3) = N[C@@H](Cc1ccccc1C(F)(F)F)C(=O)O; Phe(2-Cl) = N[C@@H](Cc1ccccc1Cl)C(=O)O; Bta = N[C@@H](Cc1csc2ccccc12)C(=O)O; Lys(iPr) = CC(C)NCCCC[C@H](N)C(=O)O; αAllylPro = C=CC[C@@]1(C(=O)O)CCCN1; hPhe = N[C@@H](CCc1ccccc1)C(=O)O; tBuAla = CC(C)(C)C[C@H](N)C(=O)O; 3Thi = N[C@@H](Cc1ccsc1)C(=O)O; Cha = N[C@@H](CC1CCCCC1)C(=O)O; S8 = C=CCCCCCC[C@](C)(N)C(=O)O; Aib = CC(C)(N)C(=O)O
Overview of reported pIC50 across a group of binders:
Scale: pIC50 equals -log10([C]), with [C] in mol/L.

# example entries with known answers
Binder	Quantity kind	Recorded measurement
CO2Hex-[αAllylPro]D[tBuAla][B5(31)]D[Phe(3-COOH)]AAFL[PyrS2″][Phe(2-Cl)][Bta]A-NH2 (staple 1-4, 4-11) [I-2325]	pIC50	5.87
Ac-[αAllylPro]DA[B5(4)]DEAAFN[S8][hPhe][Bta]Q-NH2 (staple 1-4, 4-11; also: staple isomer composition, earlier-eluting HPLC peak) [I-442]	pIC50	5.35
Ac-[αAllylPro]D[tBuAla][B5(4)]DEAAFN[S8]F[Bta]Q-NH2 (staple 1-4, 4-11) [I-677]	pIC50	7.66

Incoming: Given the entry Ac-[αAllylPro]D[tBuAla][B5(5)]D[Phe(3-COOH)]AAFL[PyrS2][Phe(2-CF3)][Bta]QVA-NH2 (staple 1-4, 4-11) [I-2401] , report its measured pIC50.
Outgoing: 7.43

Incoming: Same thing, different binder: Ac-[αAllylPro]DI[B5(4)][SbGlu]EAAFQ[S8]F[Bta]Q-NH2 (staple 1-4, 4-11) [I-676]
Outgoing: 5.30

Incoming: What about this binder? Ac-[αAllylPro]N[Cha][B5(5)]DQ[Lys(iPr)]AFL[PyrS2″]F[Bta][Nva(5-morpholino)]-NH2 (staple 1-4, 4-11) [I-2428]
Outgoing: 6.40

Incoming: Continue with Ac-[αAllylPro]D[tBuAla][B5(5)]NT[Aib]AFR[PyrS2][3Thi][Bta]Q-NH2 (staple 1-4, 4-11) [I-2407]
Outgoing: 6.86

Incoming: // repeat for Ac-[αAllylPro][SbGlu]I[B5(4)]DEAAFQ[S8]F[Bta]Q-NH2 (staple 1-4, 4-11) [I-672] and report
Outgoing: 5.30

Incoming: Follow-up item: Ac-[αAllylPro]D[tBuAla][B5(4)]DD[Aib]AFL[PyrS2″][3Thi][Bta]Q-NH2 (staple 1-4, 4-11) [I-1177]
Outgoing: 7.60

Incoming: Ac-[αAllylPro]D[Cha][B5(5)]DQ[Lys(iPr)]AFL[PyrS2″]F[Bta]K-NH2 (staple 1-4, 4-11) [I-2429] ?
Outgoing: 8.00
